- Test system: M14
- assay remarks: NCI tumour cell line growth inhibition, 48 h
Activity calls are given as the source filed them. Rule as the data show it: active = GI50 up to about 1.1 µM and inactive = higher.
Exercise: state measured GI50 for each of the compounds provided.

CN(C)c1n/c(=N/Cc2ccncc2)ss1 :: 16.8 µM (inactive)
COC(=O)[C@H]1NC(=O)CCSSC1(C)C :: > 100 µM (inactive)

Provide GI50 for all items below, preserving their order.
1. Cn1c(-c2c(C3=CC(=O)N(c4ccccc4)C3=O)c3ccccc3n2C)cc2ccccc21
2. C=CCC(SC)C1=C(C)C(=O)c2ccccc21 (centres undefined)
3. O=c1c2cccnc2oc2c(Cl)cc(-c3nnn[nH]3)cc12
4. COc1ccc2c3c(c(C(=O)c4ccccc4)oc13)CCC2

["> 100 µM (inactive)", "> 10 µM (inactive)", "> 100 µM (inactive)", "> 100 µM (inactive)"]

###

As an illustration, consider measured GI50 for compounds on HCT-15.

Below: 2 compounds and their reported GI50.
C(=N\c1ccc(-c2nc3ccccc3s2)cc1)/c1ccc[nH]1 :: 13.6 µM
COc1cc(C(=O)C/C(CCC(=O)Nc2ccc(Cl)cc2C)=N/NC(=O)C(N)=O)ccc1O :: > 100 µM

Query compound follows.
Requested read-out GI50, target or system HCT-15, entry `COc1cc(OC(C)=O)cc2c(OC(C)=O)ccc(OC(C)=O)c12` > 100 µM

###

- Test system: NCI-H460
- assay remarks: NCI tumour cell line growth inhibition, 48 h
Active and inactive are the calls of the source. Rule as the data show it: active = GI50 up to about 1.1 µM and inactive = higher.
So I've got a bunch of compounds here, and I need their GI50 values.

Record excerpt, results attached:
O=C(/C=C/c1ccccc1Br)c1ccccc1 :: 4.37 µM (inactive)
Cc1c(C(=O)O)n2c(S)nnc2c2ccccc12 :: > 100 µM (inactive)
Cc1cc2nn(C3CCCO3)nc2cc1C (stereo not given) :: > 100 µM (inactive)
COc1cc2c(cc1OC)CN1CCCc3cc(OC)c(OC)cc3C1C2 (stereo not given) :: 31.4 µM (inactive)

Look up GI50 with NCI-H460 for this compound: `O=C(Cn1c2c(c3ccccc31)CCCC2)N1CCCC1` > 100 µM (inactive)

###

- Tested on: M14
- assay remarks: NCI tumour cell line growth inhibition, 48 h
Calls of active or inactive are those of the source. No stated cut-off is given here; in the data, active = GI50 up to about 1.1 µM and inactive = higher.
Exercise: state measured GI50 for each of the molecules provided.

Hey, quick one: what's GI50 for each of these?
1. O=c1c(Cl)c(Cl)c(=O)c2sc3cc(Cl)ccc3[nH]c1=2
2. O=C(O)C1OC(n2cc(F)c(=O)[nH]c2=O)CC1O (stereo not drawn)
3. CN(NC(=O)c1cccs1)C1=NCCN1

40.5 µM (inactive)
29.4 µM (inactive)
> 100 µM (inactive)
